The entries below come with measured pKd values attached.
# subject of test: T1, Recombinant human Dkk-1 (R&D Systems cat no. 1096-DK/CF), 10xHis tag at the C terminal (human, UniProt O94907 32-266)
# T1 construct: the actual N-terminus of the purified protein is marked in bold italic after residue 30, but the mark is an image lost in the text; also called rhuDkk-1; hDkk-1
# T1 sequence: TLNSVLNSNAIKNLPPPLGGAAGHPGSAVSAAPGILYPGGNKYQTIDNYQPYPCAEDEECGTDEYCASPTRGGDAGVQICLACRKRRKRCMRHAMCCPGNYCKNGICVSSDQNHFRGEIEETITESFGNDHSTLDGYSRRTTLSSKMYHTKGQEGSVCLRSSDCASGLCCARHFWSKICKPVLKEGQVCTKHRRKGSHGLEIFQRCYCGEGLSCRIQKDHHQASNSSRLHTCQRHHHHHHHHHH
# assay name: theoretical: koff / estimated kon 1e6 1/Ms (SPR screening 37C)
pKd: −log10 of the molar value.

| binder | pKd |
| --- | --- |
| L2.P4.H3 (Fab, V domains shown, tested as Fab (E. coli lysate, screening mode); human kappa CL and IgG2 CH1 not included here) VH: EVQLVESGGGLVQPGGSLRLSCAASGFTFSSYAISWVRQAPGKGLEWVASVSGWLDTYYPDSVKGRFTISRDNAKNSLYLQMNSLRAEDTAVYYCATSLENYAFDYWGQGTTVTVSS VL: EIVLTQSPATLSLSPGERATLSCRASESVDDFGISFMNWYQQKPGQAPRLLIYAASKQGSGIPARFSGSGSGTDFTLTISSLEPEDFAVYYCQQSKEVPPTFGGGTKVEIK | 8.56 |
| SL3.4A10 (Fab, V domains shown, tested as Fab (E. coli lysate, screening mode); human kappa CL and IgG2 CH1 not included here) VH: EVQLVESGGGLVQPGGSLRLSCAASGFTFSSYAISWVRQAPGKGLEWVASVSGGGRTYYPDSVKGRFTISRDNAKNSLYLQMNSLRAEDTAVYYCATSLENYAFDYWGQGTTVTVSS VL: EIVLTQSPATLSLSPGERATLSCRASESVDDFGISFMNWYQQKPGQAPRLLIYAASKQGSGIPARFSGSGSGTDFTLTISSLEPEDFAVYYCQQSLEVPPTFGGGTKVEIK | 8.14 |
